Biological target: human serum albumin (HSA) (Homo sapiens, UniProt P02768)
Construct: purchased Sigma-Aldrich
Sequence (P02768 25-609): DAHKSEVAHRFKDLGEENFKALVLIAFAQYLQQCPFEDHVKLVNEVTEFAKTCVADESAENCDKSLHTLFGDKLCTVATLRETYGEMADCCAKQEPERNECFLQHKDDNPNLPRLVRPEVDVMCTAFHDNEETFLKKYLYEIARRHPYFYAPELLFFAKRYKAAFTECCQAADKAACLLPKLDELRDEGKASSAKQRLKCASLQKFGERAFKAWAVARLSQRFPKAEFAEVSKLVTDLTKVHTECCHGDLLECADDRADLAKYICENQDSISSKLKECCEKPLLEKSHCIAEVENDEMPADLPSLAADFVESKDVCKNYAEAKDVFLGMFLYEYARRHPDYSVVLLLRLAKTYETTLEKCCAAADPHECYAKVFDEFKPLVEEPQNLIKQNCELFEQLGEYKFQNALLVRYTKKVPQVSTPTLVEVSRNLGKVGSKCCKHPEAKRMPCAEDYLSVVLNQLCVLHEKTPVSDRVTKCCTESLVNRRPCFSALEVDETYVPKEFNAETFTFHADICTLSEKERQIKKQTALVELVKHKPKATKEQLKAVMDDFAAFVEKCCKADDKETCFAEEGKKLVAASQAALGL
Assay: HSA-ligand interaction by fluorescence spectroscopy (quenching, Stern-Volmer and Hyperquad fitting)
Format: binding
Conditions: LogK (binding constant of albumin-ligand complex), decimal log ±SEM of K in L/mol; Hyperquad non-linear fitting; PBS pH 7.4
Reported property: Kd (µM)

- Oc1cccc(O)c1O: 20.9

----------
Biological target: CYP3A4 (Homo sapiens, UniProt P08684)
Construct: purchased Sigma-Aldrich
Sequence (P08684 whole entry): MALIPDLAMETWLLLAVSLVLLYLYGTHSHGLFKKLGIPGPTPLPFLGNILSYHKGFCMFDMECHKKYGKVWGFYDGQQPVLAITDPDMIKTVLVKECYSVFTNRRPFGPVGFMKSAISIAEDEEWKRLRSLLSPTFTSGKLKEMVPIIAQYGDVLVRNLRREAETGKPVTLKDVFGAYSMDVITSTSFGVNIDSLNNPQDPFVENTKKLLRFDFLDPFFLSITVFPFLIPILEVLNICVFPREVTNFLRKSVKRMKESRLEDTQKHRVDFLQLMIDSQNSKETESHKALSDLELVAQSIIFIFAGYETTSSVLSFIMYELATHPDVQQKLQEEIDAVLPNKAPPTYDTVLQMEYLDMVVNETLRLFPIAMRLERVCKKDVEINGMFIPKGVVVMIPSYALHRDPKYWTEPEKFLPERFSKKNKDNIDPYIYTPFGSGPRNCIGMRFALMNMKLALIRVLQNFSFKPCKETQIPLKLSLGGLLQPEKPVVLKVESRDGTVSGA
Test: CYP3A4-catalyzed testosterone hydroxylation (CypExpress 3A4 kit)
Format: in vitro ADME
Details: CypExpress 3A4 kit (recombinant CYP3A4), probe testosterone, metabolite 20 μM, testosterone 5 μM, read-out: Inhibition of CYP3A4 (decrease in metabolite formation)
Reported property: inhibition at 20 μM

- Oc1cccc(O)c1: ~65%
- Oc1cc(O)cc(O)c1: ~40%
- CC(C(=O)c1ccc(O)cc1O)c1ccc(O)cc1 (stereo not shown): < 30%
- CC(=O)c1ccc(O)cc1O [24DHAP, 2,4-dihydroxyacetophenone]: < 30%

----------
Biological target: human serum albumin (HSA) (Homo sapiens)
Construct: purchased Sigma-Aldrich
Experiment: HSA-ligand interaction by fluorescence spectroscopy (quenching, Stern-Volmer and Hyperquad fitting)
Format: binding
Details: decimal log ±SEM of KSV in L/mol; HSA 2 μM, PBS pH 7.4, λex 295 nm, λem 340 nm
Recorded LogKSV (Stern-Volmer quenching constant) for the following compounds
Reported property: LogKSV (Stern-Volmer quenching constant)

- O=C(O)/C=C/c1cccc(O)c1: 4.13
- Oc1cccc(O)c1O: 4.64
- CC(C(=O)c1ccc(O)cc1O)c1ccc(O)cc1 (stereo not shown): 4.99
- CC(=O)c1ccc(O)cc1O [24DHAP, 2,4-dihydroxyacetophenone]: 4.39
